Target: human orexin-1 receptor (Homo sapiens (Human))
Sequence (O43613 whole entry): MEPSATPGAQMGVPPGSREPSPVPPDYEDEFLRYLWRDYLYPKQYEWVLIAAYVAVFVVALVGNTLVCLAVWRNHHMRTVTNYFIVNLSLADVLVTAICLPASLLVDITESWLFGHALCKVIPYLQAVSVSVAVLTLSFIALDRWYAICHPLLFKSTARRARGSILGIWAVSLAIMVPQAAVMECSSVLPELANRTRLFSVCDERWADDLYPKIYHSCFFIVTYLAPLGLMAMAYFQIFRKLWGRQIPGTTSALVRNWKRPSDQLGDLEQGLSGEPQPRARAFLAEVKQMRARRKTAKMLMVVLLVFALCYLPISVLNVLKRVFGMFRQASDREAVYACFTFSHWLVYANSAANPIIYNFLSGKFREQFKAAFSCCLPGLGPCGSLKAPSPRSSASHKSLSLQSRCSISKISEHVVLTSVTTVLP
Assay: In vitro assay: intracellular calcium measurements (FLIPR), antagonistic activity
Settings: CHO cells expressing human orexin-1 receptor, orexin-A agonist, geometric mean, read-out: IC50 Ox1
Procedure: In Vitro Assay: Intracellular Calcium Measurements: […] Within the Fluorescent Imaging Plate Reader (FLIPR Tetra, Molecular Devices), antagonists are added to the plate in a volume of 10 μl/well, incubated for 120 min and finally 10 μl/well of agonist is added. […] The calculated IC50 values may fluctuate depending on the daily cellular assay performance. […]
recorded.metric: pIC50
Just so you know, pIC50 here is -log10 of the concentration in molar units; reply with that number alone.

>>> print(df.to_string())
                  compound_structure_string                             target_entity  number
0  COc1ccc2nc([C@@H]3CCCN3C(=O)c3nc(C)sc3-c3ccc(C)cc3)[nH]c2c1  human orexin-1 receptor (Homo sapiens (Human))    6.38
1  Cc1ccc(-n2nccn2)c(C(=O)N2CCC[C@@]2(C)c2nc3cc(Cl)ccc3[nH]2)c1  human orexin-1 receptor (Homo sapiens (Human))    7.54

Now turn to the next molecule.
Item `CSc1ccc2nc([C@@H]3CCCN3C(=O)c3nc(C)sc3-c3ccc(Br)cc3)[nH]c2c1` : provide pIC50
6.91

---

target: UniProt:O43614; experiment: In vitro assay: intracellular calcium measurements (FLIPR), antagonistic activity; settings: CHO cells expressing human orexin-2 receptor, orexin-A agonist, geometric mean, read-out: IC50 Ox2
Sequence (O43614 whole entry): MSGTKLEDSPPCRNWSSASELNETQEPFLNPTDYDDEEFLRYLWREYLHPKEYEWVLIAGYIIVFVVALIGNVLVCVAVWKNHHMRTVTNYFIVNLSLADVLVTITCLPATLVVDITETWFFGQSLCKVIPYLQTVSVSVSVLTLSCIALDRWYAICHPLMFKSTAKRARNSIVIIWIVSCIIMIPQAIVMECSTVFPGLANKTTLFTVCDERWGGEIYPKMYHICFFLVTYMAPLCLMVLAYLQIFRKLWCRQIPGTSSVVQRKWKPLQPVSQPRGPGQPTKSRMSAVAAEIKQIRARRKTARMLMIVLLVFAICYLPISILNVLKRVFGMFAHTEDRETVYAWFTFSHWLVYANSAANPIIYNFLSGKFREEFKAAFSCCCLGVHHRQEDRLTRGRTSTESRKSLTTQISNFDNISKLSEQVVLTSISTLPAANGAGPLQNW
Assign classes using reported IC50 values and the ranges bottom = under 20 nM, middle = from 20 nM up to 200 nM, top = 200 nM and over, please.

In [3]: df
Out[3]:
                                   molecule  qualitative_label
0  COc1cc2nc(C3CCCN3C(=O)c3nc(C)sc3-c3ccccc3)[nH]c2cc1OC (stereo not drawn)             middle
1  COc1cc2nc([C@@H]3[C@@H](C)CCN3C(=O)c3c(-n4nccn4)ccc(C)c3F)[nH]c2cc1OC                top
2  C=C1C[C@@H](c2nc3ccc(Cl)c(C)c3[nH]2)N(C(=O)c2c(-n3nccn3)ccc(C)c2F)C1             bottom
3  Cc1ccc(-c2sccc2C(=O)N2CC[C@H](C)[C@H]2c2nc3c(C(F)(F)F)cccc3[nH]2)cc1C             middle
4  Cc1nc(C(=O)N2CC[C@H](C)[C@H]2c2nc3c(C(C)C)cccc3[nH]2)c(-c2cccc(Cl)c2)s1                top
5  Cc1ccc(-c2nc(C)sc2C(=O)N2CC[C@H](C)[C@H]2c2nc3cc(Cl)c(C)cc3[nH]2)cc1                top
6  C=C1CN(C(=O)c2nc(N(C)C)sc2-c2ccc(C)c(C)c2)C(C)(c2nc3cc(OC)ccc3[nH]2)C1 (stereo not drawn)             middle
7  C[C@@]1(c2nc3cc(Cl)c(C(F)(F)F)cc3[nH]2)CCCN1C(=O)c1nc(-c2ccccc2F)sc1-c1ccc(F)cc1                top

Would you mind sorting `C=C1C[C@@H](c2nc3c(C)c(Cl)ccc3[nH]2)N(C(=O)c2cc(C)ccc2-n2nccn2)C1` into the appropriate category?
bottom

Band assignment needed for `Cc1cc(C(=O)N2CCC[C@@]2(C)c2nc3c(C)c(Cl)ccc3[nH]2)c(-c2ccccc2)cn1` please.
middle
